- test_details: STM_H9_CystineISnorm_perc: Stemina devTOX quickPredict H9 human embryonic stem cell (hESC)-based Assay for Cystine (CYSS) Metabolite Biomarker, Normalized (AID 2283713)
The source made the active and inactive calls. Rule for the calls: active = hit-call score of the fitted dose curve at least 0.9, where 1 is the maximum; inactive = score below 0.9.
quantity_measured: AC50

Answered examples (4):
Nc1nc(Cl)nc2c1ncn2[C@H]1C[C@H](O)[C@@H](CO)O1	0.348 µM (active)
CCCCCCCCCCCCCCCCO	inactive
O=Cc1ccccc1C=O	inactive
CC(=O)[C@@]1(O)CC[C@H]2[C@@H]3CCC4=CC(=O)CC[C@]4(C)[C@H]3CC[C@@]21C	80 µM (active)

Field: AC50. Fill in for each record below.
1. NC(=Nc1ccccc1)Nc1ccccc1
2. O=C1NC(=O)C(c2ccccc2)(c2ccccc2)N1
3. Nc1nc(=S)c2[nH]cnc2[nH]1
4. CCN(CC)CCOc1ccc(C(=C(Cl)c2ccccc2)c2ccccc2)cc1

1: inactive; 2: inactive; 3: 2.13 µM (active); 4: 1.17 µM (active)

State the recorded AC50 for every item in the following list.
1. CCCCCCCCCC[N+](C)(C)[O-]
2. CCc1nc(N)nc(N)c1-c1ccc(Cl)cc1

25 µM (active)
30.6 µM (active)

* * *

- Read-out: Caspase-3 (Homo sapiens) (UniProt P42574)
- Sequence (P42574 whole entry, looked up): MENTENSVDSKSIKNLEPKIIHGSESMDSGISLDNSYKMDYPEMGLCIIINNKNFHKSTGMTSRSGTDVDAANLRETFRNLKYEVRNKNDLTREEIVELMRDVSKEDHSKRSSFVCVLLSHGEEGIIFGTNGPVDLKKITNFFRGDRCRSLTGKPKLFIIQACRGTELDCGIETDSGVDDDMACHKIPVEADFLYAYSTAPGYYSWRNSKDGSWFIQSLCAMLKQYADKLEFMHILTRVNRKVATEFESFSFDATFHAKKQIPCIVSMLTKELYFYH
- test_details: LTEA_HepaRG_CASP3: Life Technologies and Expression Analysis (LTEA) Assay for cysteine-aspartic acid protease (CASP3) using HepaRG (AID 2283477)
- test_context: mRNA level, 48 h; actives raise or lower the signal
The source made the active and inactive calls. How the source made its calls: active means hit-call score of the fitted dose curve at least 0.9, where 1 is the maximum; inactive means score below 0.9.
The categories you may choose from are true = active, false = inactive

O=NO	false
CC(=O)O	false
CCOCCOCCO	false
Cc1cc(SC2=C(O)C[C@@](CCc3ccc(N)cc3)(C(C)C)OC2=O)c(C(C)(C)C)cc1CO	false

// next entry
Give the logged outcome of this assay for the following molecule: O=C(N[C@@H](c1ccccc1)[C@@H]1CCCCN1)c1cccc(C(F)(F)F)c1Cl
true

* * *

- Read-out: JUN Transcription Factor, JUN (gene 3725)
- test_details: LTEA_HepaRG_JUN: Life Technologies and Expression Analysis (LTEA) Assay for JUN Transcription Factor using HepaRG (AID 2283513)
- test_context: mRNA level, 48 h; actives raise or lower the signal
Active and inactive are the calls of the source. Rule for the calls: active = hit-call score of the fitted dose curve at least 0.9, where 1 is the maximum; inactive = score below 0.9.
quantity_measured: AC50

CS(=O)(=O)c1ccc([C@@H](C[C@H]2CCC(=O)C2)C(=O)Nc2cnccn2)cc1Cl	1.43 µM (active)
CCc1cc(C2=C(C(=O)O)N(c3ccccc3C(F)(F)F)S(=O)(=O)c3ccccc32)cc2c1OCO2	inactive
CC(=O)S[C@H](C(=O)N[C@H]1Cc2ccccc2[C@H]2CCC[C@@H](C(=O)O)N2C1=O)C(C)C	inactive
CCN(CC)CCOc1ccc(C(=C(Cl)c2ccccc2)c2ccccc2)cc1	66.2 µM (active)
CCOCCOCCO	inactive

Okay, here is my list. What is AC50 for each of these?
1. O=C1O[C@H]([C@H](O)CO)C(O)=C1O
2. C/C=C/C=C/C(=O)O
3. Cc1c(C)c2c(c(C)c1O)CCC(C)(COc1ccc(CC3SC(=O)NC3=O)cc1)O2 (stereo not drawn)
4. CCCCCCCCCCCCCCCCO
5. COC(=O)CCCC(=O)OC

1: inactive; 2: inactive; 3: 70.9 µM (active); 4: inactive; 5: inactive

I need AC50 for every entry listed below, if you could help.
1. CC(=O)O[C@]1(C(C)=O)CC[C@H]2[C@@H]3C=C(Cl)C4=CC(=O)[C@@H]5C[C@@H]5[C@]4(C)[C@H]3CC[C@@]21C
2. CC1(C)C(=O)NC(=O)N1CO
3. CCC(C)N(C)C(=O)c1cc2ccccc2c(-c2ccccc2Cl)n1 (stereo not drawn)
4. Oc1ccc(O)cc1
5. O=[Si]=O
6. CCCCCCCCCC[N+](C)(C)[O-]
7. CC(C)(O)c1ccc(CNC(=O)c2cccnc2Oc2ccc(F)cc2)cc1
8. CC(=O)[C@@]1(O)CC[C@H]2[C@@H]3CCC4=CC(=O)CC[C@]4(C)[C@H]3CC[C@@]21C

inactive
inactive
inactive
inactive
inactive
inactive
inactive
inactive

* * *

- Read-out: Macrophage colony-stimulating factor (MCSF), CSF1 (gene 1435)
- test_details: BSK_LPS_MCSF: BioMAP Diversity Plus: LPS Assay for Macrophage colony-stimulating factor (MCSF) Biomarker Activity (AID 2283083)
- test_context: primary human HUVEC with PBMC; actives raise or lower the signal
Activity calls are given as the source filed them. Rule for the calls: active = hit-call score of the fitted dose curve at least 0.9, where 1 is the maximum; inactive = score below 0.9.
Field 'call' accepts active, inactive

Please review the following examples before continuing.
CN(C)CCCN1c2ccccc2Sc2ccc(Cl)cc21	active
CC(C)c1cccc(C(C)C)c1	inactive
CC(=O)OCC(COC(C)=O)OC(C)=O	inactive
C/C=C/C=C/C(=O)O	inactive

Note: attention shifts to another entry.
Outcome? OCC(O)CO
inactive

* * *

- Read-out: Interferon-gamma inducible Protein 10 (IP10), CXCL10 (gene 3627)
- test_details: BSK_hDFCGF_IP10: BioMAP Diversity Plus: hDFCGF Assay for Interferon-gamma inducible Protein 10 (IP10) Biomarker Activity (AID 2283053)
- test_context: primary human foreskin fibroblasts; actives raise or lower the signal
Active and inactive are the calls of the source. The calls were made as follows: active = hit-call score of the fitted dose curve at least 0.9, where 1 is the maximum; inactive = score below 0.9.
Could you please pick one outcome from this set? True = active, False = inactive

A selection of reference data follows.
O=C1CCCCC1	False
C/C=C/c1ccc(OC)cc1	False
CN(C)C(=O)NC1(c2ccccc2)CCN(CCC[C@]2(c3ccc(Cl)c(Cl)c3)CCCN(C(=O)c3ccccc3)C2)CC1	False
Cc1ccc(-c2cc(C(F)(F)F)nn2-c2ccc(S(N)(=O)=O)cc2)cc1	False
CCc1nc(N)nc(N)c1-c1ccc(Cl)cc1	False

Please state the recorded outcome for this compound: COC(=O)[C@H]1[C@H]2C[C@@H]3c4[nH]c5cc(OC)ccc5c4CCN3C[C@H]2C[C@@H](OC(=O)c2cc(OC)c(OC)c(OC)c2)[C@@H]1OC
False

Each compound tested received a call. Report the one for O=C1OC(c2ccc(O)cc2)(c2ccc(O)cc2)c2ccccc21 .
False

Write down the call the test reported for this compound. Item: O=C(O)CN(CC(=O)O)CC(=O)O
False

For COc1ccc(C(=O)Nc2nc3ccccc3c(NCc3ccccc3)c2C#N)cc1 , which call appears in the assay record?
False

Hi team, can someone confirm the assay call for c1ccc2occc2c1 ?
False

Fill in: this test's call for CCCCc1nc2cccnc2n1Cc1ccc(-c2ccccc2-c2nnn[nH]2)cc1 is ___
True

What classification did CCN(CC)CCOc1ccc(C(=C(Cl)c2ccccc2)c2ccccc2)cc1 end up with in this test?
True

Would you mind telling me which call this test gave CN(C)CCCN(C)CCCN(C)C ?
False

Tell me the recorded outcome of this test for O=C(NS(=O)(=O)/C=C/c1cccs1)c1ccc(F)cc1Br .
True

* * *

- test_details: BSK_SAg_PBMCCytotoxicity: PBMC Cytotoxicity Assessment in the BioMAP Diversity Plus: SAg Assay (AID 2283093);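 note: PBMC viability measured as Alamar Blue reduction fluorescence at 546/580 nm; fitted both ways against DMSO so a hit may be loss or gain of signal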
- test_context: primary human HUVEC with PBMC
Active and inactive are the calls of the source. How the source made its calls: active means hit-call score of the fitted dose curve at least 0.9, where 1 is the maximum; inactive means score below 0.9.
Write down the outcome that applies. Available outcomes: active, inactive

CN(C)CCCN(C)CCCN(C)C	inactive

Please indicate how the test categorized CC(C)c1cccc(C(C)C)c1 .
inactive

State the result this test recorded for CCOCCOCCO .
inactive

Please let me know the test result on file for Oc1ccc(O)cc1 .
active

* * *

- Read-out: CD40, CD40 (gene 958)
- test_details: BSK_LPS_CD40: BioMAP Diversity Plus: LPS Assay for CD40 Biomarker Activity (AID 2283076)
- test_context: primary human HUVEC with PBMC; actives raise or lower the signal
- Description: BSK_LPS is a cell-based, multiplexed-readout assay that uses umbilical vein endothelium and peripheral blood mononuclear cells, a human vascular primary cell co-culture, with measurements taken at 24 hours after chemical dosing in a 96-well plate.BSK_LPS_CD40 is an assay component measured in the BSK_LPS assay. It measures CD40 antibody related to regulation of gene expression using ELISA technology.Data from the assay component BSK_LPS_CD40 was analyzed into 1 assay endpoint. […]
The source made the active and inactive calls. The calls were made as follows: active = hit-call score of the fitted dose curve at least 0.9, where 1 is the maximum; inactive = score below 0.9.
Thanks in advance; please answer with one of these: class 1 = active, class 0 = inactive

COc1ccc(C(=O)Nc2nc3ccccc3c(NCc3ccccc3)c2C#N)cc1	class 1
CCCCC(CC)COC(=O)CCCCCCCC(=O)OCC(CC)CCCC (stereo unspecified)	class 0
Cc1c(C)c2c(c(C)c1O)CCC(C)(COc1ccc(CC3SC(=O)NC3=O)cc1)O2 (stereo unspecified)	class 1

Hello, I am checking results. What call was entered for CCCCCCC(CCCCCCCCCCC(=O)OCC(COC(C)=O)OC(C)=O)OC(C)=O (stereo unspecified) ?
class 0

Record lookup: outcome of this test for O=Cc1ccccc1C=O ?
class 0

Hi team, can someone confirm the assay call for O=C(Oc1ccccc1)c1cccc(C(=O)Oc2ccccc2)c1 ?
class 0

Could you please tell me the result logged for CCCCCCCCCCCCCCCCO in this assay?
class 0

Just curious, what result did CC(C)(C)c1ccccc1 get here?
class 0

What is the recorded call for this compound in the test? CCCC(=O)O
class 0

Write down the call the test reported for this compound. Item: CN(C)CCCN1c2ccccc2Sc2ccc(Cl)cc21
class 1

Give the logged outcome of this assay for the following compound: CN(C)C(=O)NC1(c2ccccc2)CCN(CC[C@@]2(c3ccc(F)c(F)c3)CN(C(=O)c3ccccc3)CCO2)CC1
class 0

Per the assay record, what outcome was assigned to CCCC[C@H]1CN(CC2CCOCC2)C(=O)OC12CCN(C1(C)CCN(C(=O)c3c(C)ncnc3C)CC1)CC2 ?
class 0

GET /call?item= Cc1ccc(-c2cc(C(F)(F)F)nn2-c2ccc(S(N)(=O)=O)cc2)cc1 returns the recorded outcome of this test.
class 1

Every entry's value here was drawn from PubChem BioAssay (EPA / NIEHS).
